# assayed.target: Cytochrome P450 1A2 (Homo sapiens) (UniProt P05177)
# Sequence (P05177 whole entry, looked up): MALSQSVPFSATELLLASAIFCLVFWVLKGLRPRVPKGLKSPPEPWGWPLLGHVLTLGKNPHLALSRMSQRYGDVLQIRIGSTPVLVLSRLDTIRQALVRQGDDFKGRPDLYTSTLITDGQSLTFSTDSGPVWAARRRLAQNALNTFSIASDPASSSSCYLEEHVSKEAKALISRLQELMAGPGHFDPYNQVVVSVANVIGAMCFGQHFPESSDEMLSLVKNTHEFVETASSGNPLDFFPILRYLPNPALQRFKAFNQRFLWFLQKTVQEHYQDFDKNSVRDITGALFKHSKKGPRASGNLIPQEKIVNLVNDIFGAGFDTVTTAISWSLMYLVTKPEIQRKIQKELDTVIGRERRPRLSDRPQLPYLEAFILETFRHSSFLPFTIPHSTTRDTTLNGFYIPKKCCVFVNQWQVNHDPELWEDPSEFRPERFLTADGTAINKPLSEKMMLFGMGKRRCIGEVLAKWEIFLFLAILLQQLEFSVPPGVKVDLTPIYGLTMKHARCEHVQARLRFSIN
# procedure.text: Cytochrome panel assay with activity outcomes; for activity, negative = inhibition: % is set by controls: 0 for no effect and ±100 for the full control effect
# setup.conditions: recombinant CYP, pro-luciferin dealkylation, luminescence, p450-cyp1a2; series mostly up to 57.1 µM
# Description: The P450 gene superfamily is involved in the metabolism and clearance of xenobiotics. This assay used various human CYP P450 isozymes to measure the dealkylation of various pro-luciferin substrates to luciferin. The luciferin is then measured by luminescence after the addition of a luciferase detection reagent. […] Inhibitors and some substrates limit the production of luciferin, and decrease measured luminescence. […] 8, Detection, 1 sec, ViewLux luminescent read […]
The campaign covered roughly 16,000 compounds. About 5,700 (36%) were called active. Roughly 24% stayed inconclusive and do not appear here. This is one part of the list.
test.readout: activity, negative = inhibition

Some compounds with recorded activity, negative = inhibition:
Nc1ccc(N=Nc2c(S(=O)(=O)O)cc3ccccc3c2S(=O)(=O)O)cc1 | -20.9% [at 2.29 µM] (inactive)
CC(=O)OC[C@H]1O[C@@H](O/N=C(\C)CCC(=O)OC[C@@H]2O[C@H](C#Cc3ccccc3)C=C[C@@H]2Oc2ccc(C)cc2)[C@H](OC(C)=O)[C@@H](OC(C)=O)[C@H]1OC(C)=O | -5.25% [at 11.4 µM] (inactive)
CO[C@@H](NC(N)=O)C(=O)O | -6.36% [at 2.29 µM] (inactive)
O=C(O)[C@@H]1[C@H](C(=O)O)[C@H]2C(=O)C=C[C@H]1N2Cc1ccccc1 | -3.91% [at 2.29 µM] (inactive)

Report activity, negative = inhibition for every entry below.
1. C=CC[C@@H]1C=C[C@H](O/N=C(\C)CCN2CCCCc3nc(C)c(C)cc32)[C@H](CO)O1
2. Cn1c(=O)c2[nH]c(CCCc3ccc([N+](=O)[O-])cc3)nc2n(C)c1=O
3. CO[C@H]1COC(=O)C/C=C\[C@H](C)COC(=O)[C@@H](C)NC(=O)C/C=C\[C@@H]1C
4. COC(=O)C/C=C\[C@@H](C)[C@@H](/C=N\O[C@@H](C)c1cn([C@H]2COC[C@H]2O)nn1)NS(=O)(=O)c1ccc(C)cc1
5. C#CCCCO/N=C1/C[C@@H](O)[C@@H](O)[C@@H]2[C@@H]3C(=O)N([C@@H](C)c4ccccc4)C(=O)[C@H]3CC[C@@H]12
6. C/C(CCC(=O)OC[C@@H]1O[C@H](C#Cc2ccccc2)C=C[C@@H]1Oc1ccc(C)cc1)=N/OC[C@@H](O)COCc1ccco1
7. C[C@@H](N)[C@@H](C)Cc1ccccc1
8. CC1=NCC[N@@+]1(CCc1ccccc1)Cc1ccccc1

Response:
-6.73% [at 11.4 µM] (inactive)
-18.9% [at 11.4 µM] (inactive)
-2.38% [at 11.4 µM] (inactive)
-5.92% [at 11.4 µM] (inactive)
-1.14% [at 11.4 µM] (inactive)
-4.08% [at 11.4 µM] (inactive)
-20% [at 11.4 µM] (inactive)
-17.6% [at 11.4 µM] (inactive)

---

# assayed.target: Cytochrome P450 1A2 (Homo sapiens) (UniProt P05177)
# procedure.text: Cytochrome panel assay with activity outcomes
# setup.conditions: recombinant CYP, pro-luciferin dealkylation, luminescence, p450-cyp1a2; series mostly up to 57.1 µM
The campaign covered roughly 16,000 compounds. About 5,700 (36%) were called active. Not shown: some 24% with an inconclusive outcome. This is one part of the list.
test.readout: AC50

Some molecules with recorded AC50:
COc1ccc(NC(=O)N2CCCC3(CCN(S(C)(=O)=O)CC3)C2)cc1 | inactive
CCOc1ccc2nc(NC(=O)c3ccc(S(=O)(=O)N4CCOCC4)cc3)sc2c1 | inactive
O=[N+]([O-])c1ccc(Cl)c(-c2ccc(/C=N/c3c(-c4ccco4)nc4ccccn34)o2)c1 | inactive
COc1ccc(N2C(N)=NC(N)=NC2(C)C)cc1 | inactive
COc1ccc2nc(N)sc2c1 | 12.6 µM (active)
COc1ccc(Cc2c(N)nc(N)nc2N)cc1 | inactive
COc1ccc2nc(NC(=O)CSc3nnc(C)s3)sc2c1 | 2.82 µM (active)
COc1cc(-c2nc3ccccn3c2/N=C/c2ccccc2)ccc1O | 3.16 µM (active)
CCCOc1ccc(C(=O)NC(=S)Nc2nc3ccc(C)cc3s2)cc1 | inactive
NS(=O)(=O)c1cc2c(cc1Cl)N[C@@H](C(Cl)Cl)NS2(=O)=O | inactive

For the next question, use this molecule.
Query: Item: CN(Cc1ccco1)C(=O)C1CCC(=O)N1Cc1ccc(F)cc1 (stereo unspecified) Test system: Cytochrome P450 1A2 (Homo sapiens) (UniProt P05177) Read-out: AC50 Value: ?
Response: inactive
